- target: human HER3 on cells (human) (UniProt P21860)
- method-summary: FACS on Human HER3-CHO cells
Mark Not fulfilled for MFI values under 200 MFI, and Fulfilled for everything at or above.

>>> cat("mHE5 (antibody, V domains shown) VH: EVQLQESGPGLVKPSQSLSLTCSVTGYSITSGYYWNWIRQFPGNKLEWMGYISYDGSNNYNPSLKNRISITRDTSKNQFFLKLNSVTTEDTATYYCASYDYDGDWFAYWGQGTLVTVSA VL: DIVLTQSPASLAVSLGQRATISCRASESVDHYGSSFMHWYQQKPGQPPKLLIYRASNPESGIPARFSGSGSRTDFTLTINPVETDDVATYYCQQSNKDPPTFGGGTKLEIKR")
"Fulfilled"
>>> cat("mHE1 (antibody, V domains shown) VH: EVKLQESGPGLVKPSQSLSLTCSVTGYSITSGYYWNWIRQFPGNKLEWMGYISYDGSNNYNPSLKNRISITRDTSKNQFFLNLNSVTTEDTATYYCARVDWDGDAMDYWGQGTSVTVSS VL: DIVLTQSPASLAVSLGQRATISCRASESVDNYGIRLMHWYQQKSGQPPKLLIHRASNLESGIPARFSGSGSRTDFTLTINPVETDDVATYYCQQSNKDPFTFGSGTKLEIKR")
"Not fulfilled"
